Reference for the values: patent US20260209220A1

Entries and their EC50 values follow.
Biological target: rM4 receptors (Rattus norvegicus)
Sequence (P08485 1-478): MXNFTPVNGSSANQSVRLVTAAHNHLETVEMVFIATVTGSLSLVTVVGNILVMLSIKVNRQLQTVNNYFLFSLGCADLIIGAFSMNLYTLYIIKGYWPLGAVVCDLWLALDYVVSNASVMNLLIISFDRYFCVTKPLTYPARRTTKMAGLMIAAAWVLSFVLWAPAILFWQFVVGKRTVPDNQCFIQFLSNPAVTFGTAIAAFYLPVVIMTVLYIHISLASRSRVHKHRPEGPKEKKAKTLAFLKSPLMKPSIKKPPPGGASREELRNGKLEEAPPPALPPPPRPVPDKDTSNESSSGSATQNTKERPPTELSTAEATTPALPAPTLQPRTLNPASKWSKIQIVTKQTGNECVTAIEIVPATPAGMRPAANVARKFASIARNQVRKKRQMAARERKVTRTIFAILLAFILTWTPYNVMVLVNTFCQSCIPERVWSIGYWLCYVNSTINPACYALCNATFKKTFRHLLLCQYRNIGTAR
Assay: Rat M4 PAM PERK assay (CHO cells, TR-FRET, with EC20 acetylcholine)
Method: Chinese hamster ovary (CHO) cells expressing either hM4 or rM4 receptors were frozen in assay ready vials (5×10^6 cells/vial) after bulking-up in culture. The day before an assay, vial(s) were thawed and cells seeded in 384 well white proxiplates at 1000/well for hM4 cells and at 2000/well for rM4 cells, in 10 μL of growth media (Hams/F12 with glutamax and 10% FCS) and incubated overnight at 37° C./5% CO2. […]
VALUE_KIND: EC50

[[record]]
compound = "Cc1cc(=O)n(C)c2c1CN(C(=O)CC1CN(c3cnnc(C4CC4)c3)C1)C2"
obs_value = "200 to 1000 nM"

[[record]]
compound = "Cc1c2c(n(C)c(=O)c1F)CN(C(=O)CC1CN(c3ccc(F)c(C(F)(F)F)c3)C1)C2"
obs_value = "50 to 200 nM"

[[record]]
compound = "Cc1cc(=O)n(C)c2c1C(C)N(C(=O)CC1CN(c3ccnc(C(F)(F)F)c3)C1)C2 (stereo not shown) [Compound I-114]"
obs_value = "50 to 200 nM"

[[record]]
compound = "Cc1cc(=O)n(C)c2c1CN(C(=O)CC1CN(c3ncc(C(F)(F)F)s3)C1)C2"
obs_value = "200 to 1000 nM"

[[record]]
compound = "Cc1c2c(n(C)c(=O)c1Cl)CN(C(=O)CC1CN(c3ccccc3)C1)C2"
obs_value = "200 to 1000 nM"

[[record]]
compound = "Cc1c2c(n(C)c(=O)c1C)CN(C(=O)CC1CN(c3ccc(C4CC4)c(F)c3)C1C)C2 (stereo not shown) [Compound I-60]"
obs_value = "< 50 nM"

[[record]]
compound = "Cc1cc(=O)n(C)c2c1CN(C(=O)CC1CN(c3ccnc(C(F)(F)F)c3)C1)C2"
obs_value = "200 to 1000 nM"

[[record]]
compound = "COc1c2c(n(C)c(=O)c1C)CN(C(=O)CC1CN(c3ccncn3)C1)C2"
obs_value = "> 1000 nM"

[[record]]
compound = "Cc1c2c(n(C)c(=O)c1C)CN(C(=O)CC1CN(c3cnc(C(F)(F)F)cn3)C1)C2"
obs_value = "50 to 200 nM"

[[record]]
compound = "Cc1c2c(n(C)c(=O)c1F)CN(C(=O)CC1CN(c3ccc(C(F)(F)F)cc3)C1)C2"
obs_value = "50 to 200 nM"

[[record]]
compound = "Cc1c2c(n(C)c(=O)c1F)CN(C(=O)CC1CN(c3cccc(C(F)(F)F)c3F)C1)C2"
obs_value = "200 to 1000 nM"

[[record]]
compound = "COc1c2c(n(C)c(=O)c1C)CN(C(=O)CC1CN(c3ccc(C(F)(F)F)cc3)C1)C2"
obs_value = "200 to 1000 nM"

[[record]]
compound = "Cc1c2c(n(C)c(=O)c1C)CN(C(=O)CC1CN(c3ccc(OC(F)(F)F)cc3)C1)C2"
obs_value = "50 to 200 nM"

[[record]]
compound = "Cc1cc(=O)n(C)c2c1CN(C(=O)CC1CN(c3cnnc(C(F)(F)F)c3)C1)C2"
obs_value = "50 to 200 nM"

[[record]]
compound = "COc1cncc(N2CC(CC(=O)N3Cc4c(C)cc(=O)n(C)c4C3)C2)c1"
obs_value = "200 to 1000 nM"

[[record]]
compound = "Cc1c2c(n(C)c(=O)c1Cl)CN(C(=O)CC1CN(c3ccnc(C(F)(F)F)c3)C1)C2"
obs_value = "50 to 200 nM"

